For each of the compounds below, state its pKi.
test: Competitive inhibition of Sporosarcina pasteurii CCM 2056 urease using varying levels of urea as substrate pretreated for 60 mins followed by substrate addition after 10 mins by Lineweaver-Burk plot analysis
Quick note: pKi values are minus log10 of concentrations in mol/L.

Read the entry COC(=O)/C(=C/c1ccc(OC)cc1)CCP(=O)(O)O and write its reported pKi.
3.53

Read the entry COC(=O)/C(=C/c1ccc(Cl)cc1)CP(=O)(O)O and write its reported pKi.
4.09

Read the entry O=C(O)/C(=C/c1ccc(Cl)cc1)CP(=O)(O)O and write its reported pKi.
4.79

Read the entry COC(=O)/C(=C/c1ccc(C)cc1)C[PH](=O)O and write its reported pKi.
4.63

Read the entry COC(=O)/C(=C/c1ccccc1)CP(=O)(O)CO and write its reported pKi.
3.53

Read the entry COC(=O)/C(=C/c1ccc(OC)cc1)C[PH](=O)O and write its reported pKi.
3.83

Read the entry NCP(=O)(O)C/C(=C\c1ccccc1)C(=O)O and write its reported pKi.
2.88

Read the entry COC(=O)/C(=C/c1ccc(F)cc1)CP(=O)(O)O and write its reported pKi.
4.20

Read the entry COC(=O)/C(=C/c1ccccc1)CCP(=O)(O)O and write its reported pKi.
5.52

Read the entry COC(=O)/C(=C/c1ccc(F)cc1)C[PH](=O)O and write its reported pKi.
4.84

Read the entry O=C(O)/C(=C/c1ccccc1)CCP(=O)(O)O and write its reported pKi.
4.18

---

experiment: Competitive inhibition of Sporosarcina pasteurii CCM 2056 urease using varying levels of urea as substrate pretreated for 60 mins followed by substrate addition after 10 mins by Lineweaver-Burk plot analysis
Value Type: Ki
Could you give the number and then its unit, please?

Read the entry COC(=O)/C(=C/c1ccc(OC)cc1)CP(=O)(O)O and write its reported Ki.
229 µM

Read the entry COC(=O)/C(=C/c1ccc(NC(C)=O)cc1)CP(=O)(O)O and write its reported Ki.
386 µM

Read the entry O=C(O)/C(=C/c1ccccc1)C[PH](=O)O and write its reported Ki.
117 µM

---

experiment: Competitive inhibition of Sporosarcina pasteurii CCM 2056 urease using varying levels of urea as substrate after 10 mins by Lineweaver-Burk plot analysis
pKi: −log10 of the molar value.
Rule: pKi of 4 or more gives met; anything lower gives not met.

Test whether the compound O=C(O)/C(=C/c1ccccc1)CP(=O)(O)O records pKi of 4 or higher.
met

Test whether the compound Cc1ccc(/C=C(\CP(=O)(O)O)C(=O)O)cc1 records pKi of 4 or higher.
met

Test whether the compound COC(=O)/C(=C/c1ccc(C)cc1)CP(=O)(O)O records pKi of 4 or higher.
met

Test whether the compound COC(=O)/C(=C/c1ccc(OC)cc1)CCP(=O)(O)O records pKi of 4 or higher.
not met

Test whether the compound COC(=O)/C(=C/c1ccccc1)CCP(=O)(O)O records pKi of 4 or higher.
met

Test whether the compound COC(=O)/C(=C/c1ccc(F)cc1)CCP(=O)(O)O records pKi of 4 or higher.
met

Test whether the compound COC(=O)/C(=C/c1ccc(NC(C)=O)cc1)C[PH](=O)O records pKi of 4 or higher.
met

Test whether the compound COC(=O)/C(=C/c1ccc(F)cc1)CP(=O)(O)O records pKi of 4 or higher.
met

Test whether the compound COC(=O)/C(=C/c1ccc(Cl)cc1)C[PH](=O)O records pKi of 4 or higher.
met

Test whether the compound COC(=O)/C(=C/c1ccc(F)cc1)C[PH](=O)O records pKi of 4 or higher.
met

Test whether the compound COC(=O)/C(=C/c1ccc(OC)cc1)CP(=O)(O)O records pKi of 4 or higher.
not met

Test whether the compound COC(=O)/C(=C/c1ccccc1)C[PH](=O)O records pKi of 4 or higher.
not met

---

For each of the compounds below, state its Ki.
assay: Competitive inhibition of Sporosarcina pasteurii CCM 2056 urease using varying levels of urea as substrate after 10 mins by Lineweaver-Burk plot analysis
Write it as a number; the unit µM goes unstated.

Read the entry O=C(O)/C(=C/c1ccc(F)cc1)CCP(=O)(O)O and write its reported Ki.
32.3

Read the entry O=C(O)/C(=C/c1ccc(F)cc1)CP(=O)(O)O and write its reported Ki.
13.4

Read the entry Cc1ccc(CC(CP(=O)(O)O)C(=O)O)cc1 (configuration not stated) and write its reported Ki.
88

Read the entry COC(=O)/C(=C/c1ccccc1)CP(=O)(O)CO and write its reported Ki.
327

Read the entry O=C(O)/C(=C/c1ccc(Cl)cc1)CP(=O)(O)O and write its reported Ki.
19.6

Read the entry O=C(O)/C(=C/c1ccccc1)C[PH](=O)O and write its reported Ki.
208

Read the entry COC(=O)/C(=C/c1ccc(OC)cc1)C[PH](=O)O and write its reported Ki.
157

Read the entry COC(=O)/C(=C/c1ccc(NC(C)=O)cc1)CP(=O)(O)O and write its reported Ki.
404

Read the entry NCP(=O)(O)C/C(=C\c1ccccc1)C(=O)O and write its reported Ki.
1420

Read the entry COc1ccc(/C=C(\CP(=O)(O)O)C(=O)O)cc1 and write its reported Ki.
28.9

Read the entry COC(=O)/C(=C/c1ccc(C)cc1)C[PH](=O)O and write its reported Ki.
41.6

Read the entry O=C(O)/C(=C/c1ccccc1)CCP(=O)(O)O and write its reported Ki.
55.6

---

For each of the compounds below, state its log10 IC50.
test: Inhibition of Sporosarcina pasteurii CCM 2056 urease using urea as substrate after 15 mins by phenol-hypochlorite reagent based colorimetric method
Base-10 log of IC50, unit µM.

Read the entry COC(=O)/C(=C/c1ccccc1)CCP(=O)(O)O and write its reported log10 IC50.
0.63

Read the entry NCP(=O)(O)C/C(=C\c1ccccc1)C(=O)O and write its reported log10 IC50.
3.18

Read the entry O=C(O)/C(=C/c1ccccc1)CCP(=O)(O)O and write its reported log10 IC50.
1.92

Read the entry COC(=O)/C(=C/c1ccccc1)CP(=O)(O)CO and write its reported log10 IC50.
2.67

Read the entry COC(=O)/C(=C/c1ccccc1)C[PH](=O)O and write its reported log10 IC50.
2.30

Read the entry O=C(O)/C(=C/c1ccccc1)C[PH](=O)O and write its reported log10 IC50.
2.54

Read the entry O=C(O)/C(=C/c1ccccc1)CP(=O)(O)O and write its reported log10 IC50.
1.65

---

assay: Inhibition of Proteus mirabilis urease
For each of the molecules below, state its Ki.
Could you give the number and then its unit, please?

Read the entry COC(=O)/C(=C/c1ccccc1)CCP(=O)(O)O and write its reported Ki.
1.52 µM

Read the entry Cc1ccc(/C=C(\CP(=O)(O)O)C(=O)O)cc1 and write its reported Ki.
0.485 µM

---

For each of the compounds below, state its Ki.
assay: Slow-binding inhibition of Sporosarcina pasteurii CCM 2056 urease using varying levels of urea as substrate after 120 mins by phenol-hypochlorite reagent based colorimetric method
Write it as a number; the unit µM goes unstated.

Read the entry O=C(O)/C(=C/c1ccc([N+](=O)[O-])cc1)CCP(=O)(O)O and write its reported Ki.
59.9

Read the entry COC(=O)/C(=C/c1ccc([N+](=O)[O-])cc1)CCP(=O)(O)O and write its reported Ki.
54.1

---

assay: Competitive inhibition of Sporosarcina pasteurii CCM 2056 urease using varying levels of urea as substrate pretreated for 60 mins followed by substrate addition after 10 mins by Lineweaver-Burk plot analysis
For each of the molecules below, state its pKi.
Quick note: pKi values are minus log10 of concentrations in mol/L.

Read the entry COC(=O)/C(=C/c1ccc(Cl)cc1)C[PH](=O)O and write its reported pKi.
4.78

Read the entry O=C(O)/C(=C/c1ccc(F)cc1)CCP(=O)(O)O and write its reported pKi.
4.55

Read the entry Cc1ccc(/C=C(\C[PH](=O)O)C(=O)O)cc1 and write its reported pKi.
4.63

Read the entry Cc1ccc(/C=C(\CCP(=O)(O)O)C(=O)O)cc1 and write its reported pKi.
4.18

Read the entry Cc1ccc(/C=C(\CP(=O)(O)O)C(=O)O)cc1 and write its reported pKi.
6.23

Read the entry COC(=O)/C(=C/c1ccc(NC(C)=O)cc1)C[PH](=O)O and write its reported pKi.
4.87

Read the entry COC(=O)/C(=C/c1ccc(F)cc1)CCP(=O)(O)O and write its reported pKi.
4.32

Read the entry Cc1ccc(CC(CP(=O)(O)O)C(=O)O)cc1 (configuration not stated) and write its reported pKi.
4.04

Read the entry COc1ccc(/C=C(\CP(=O)(O)O)C(=O)O)cc1 and write its reported pKi.
4.46

Read the entry O=C(O)/C(=C/c1ccc(F)cc1)CP(=O)(O)O and write its reported pKi.
5.01

Read the entry COC(=O)/C(=C/c1ccc(C)cc1)CP(=O)(O)O and write its reported pKi.
4.68

Read the entry COC(=O)/C(=C/c1ccccc1)C[PH](=O)O and write its reported pKi.
4.01

---

assay: Slow-binding inhibition of Sporosarcina pasteurii CCM 2056 urease using varying levels of urea as substrate pretreated for 60 mins followed by substrate addition after 120 mins by phenol-hypochlorite reagent based colorimetric method
For each of the compounds below, state its Ki.
Could you give the number and then its unit, please?

Read the entry COC(=O)/C(=C/c1ccc([N+](=O)[O-])cc1)CCP(=O)(O)O and write its reported Ki.
362 µM

Read the entry O=C(O)/C(=C/c1ccc([N+](=O)[O-])cc1)CCP(=O)(O)O and write its reported Ki.
433 µM
